Here, each record is paired with measured bioavailability data.
- experiment-description: Oral bioavailability in Sprague-Dawley rat at 10 mg/kg
- Assay type: ADME, organism-based
- condition-notes: in vivo
Report the figure in % without appending any unit label.

Answered examples (3):
sample-smiles: COc1ccc2c(O[C@@H]3C[C@H]4C(=O)N[C@]5(C(=O)NS(=O)(=O)C6CC6)C[C@H]5/C=C\CCCCCNC(=O)N4C3)cc(-c3nc(C(C)C)cs3)nc2c1
bioavailability, %: 20
//
sample-smiles: COc1ccc2c(O[C@@H]3C[C@H]4C(=O)N[C@]5(C(=O)NS(=O)(=O)C6(C)CC6)C[C@H]5/C=C\CCCCCNC(=O)N4C3)cc(-c3nc(C(C)C)cs3)nc2c1
bioavailability, %: 54
//
sample-smiles: COc1ccc2c(O[C@@H]3C[C@H]4C(=O)N[C@]5(C(=O)NS(=O)(=O)C6CC6)C[C@H]5/C=C\CCCCNC(=O)N4C3)cc(-c3nc(C(C)C)cs3)nc2c1
bioavailability, %: 1.3

Here is the next item to consider.
Asked: I have this molecule here, "COc1ccc2c(O[C@@H]3C[C@H]4C(=O)N[C@]5(C(=O)NS(=O)(=O)C6CC6)C[C@H]5/C=C\CCCCN(C)C(=O)N4C3)cc(-c3nc(C(C)C)cs3)nc2c1" , and I need its recorded bioavailability.
Given back: 37

----------
Here, each record is paired with measured Ki data.
- experiment-description: Inhibition of full length HCV NS3/4A protease
- Parameters: species or system Hepacivirus hominis
- condition-notes: read-out: Ki
Report the figure in nM without appending any unit label.

sample-smiles: COc1ccc2c(O[C@@H]3C[C@H]4C(=O)N[C@]5(C(=O)NS(=O)(=O)C6CC6)C[C@H]5/C=C\CCCCN(C)C(=O)N4C3)cc(-c3nc(C(C)C)cs3)nc2c1
Ki, nM: 0.45

sample-smiles: COc1ccc2c(O[C@@H]3C[C@H]4C(=O)N[C@]5(C(=O)NS(=O)(=O)C6CC6)C[C@H]5/C=C\CCCCCNC(=O)N4C3)cc(-c3nc(C(C)C)cs3)nc2c1Cl
Ki, nM: 0.1

sample-smiles: COc1ccc2c(O[C@@H]3C[C@H]4C(=O)N[C@]5(C(=O)NS(=O)(=O)C6(C)CC6)C[C@H]5/C=C\CCCCCNC(=O)N4C3)cc(-c3nc(C(C)C)cs3)nc2c1
Ki, nM: 0.1

sample-smiles: COc1ccc2c(O[C@@H]3C[C@H]4C(=O)N[C@]5(C(=O)NS(=O)(=O)C6CC6)C[C@H]5/C=C\CCCCCOC(=O)N4C3)cc(-c3ccccc3)nc2c1
Ki, nM: 2.4

Here is the next item to consider.
Asked: I have this molecule here, "COc1ccc2c(O[C@@H]3C[C@H]4C(=O)N[C@]5(C(=O)NS(=O)(=O)C6CC6)C[C@H]5/C=C\CCCCCN(C)C(=O)N4C3)cc(-c3nc(C(C)C)cs3)nc2c1" , and I need its recorded Ki.
Given back: 12

----------
- experiment-description: Apparent permeability across apical to basolateral side in human Caco-2 cells
- Assay type: ADME, cell-based
Here, each record is paired with measured Papp A→B data.
Report the figure in ×10⁻⁶ cm/s without appending any unit label.

Answered examples (2):
sample-smiles: COc1ccc2c(O[C@@H]3C[C@H]4C(=O)N[C@]5(C(=O)NS(=O)(=O)C6CC6)C[C@H]5/C=C\CCCCCNC(=O)N4C3)cc(-c3nc(C(C)C)cs3)nc2c1Cl
property-measured: Papp A→B
numeric-readout: 22
//
sample-smiles: COc1ccc2c(O[C@@H]3C[C@H]4C(=O)N[C@]5(C(=O)NS(=O)(=O)C6(C)CC6)C[C@H]5/C=C\CCCCCNC(=O)N4C3)cc(-c3nc(C(C)C)cs3)nc2c1Cl
property-measured: Papp A→B
numeric-readout: 29

Here is the next item to consider.
Asked: I have this compound here, "COc1ccc2c(O[C@@H]3C[C@H]4C(=O)N[C@]5(C(=O)NS(=O)(=O)C6CC6)C[C@H]5/C=C\CCCCNC(=O)N4C3)cc(-c3nc(C(C)C)cs3)nc2c1" , and I need its recorded Papp A→B.
Given back: 3

----------
Here, each record is paired with measured pEC50 data.
- System: Hepatitis C virus
- experiment-description: Antiviral activity against HCV infected in human Huh7 cells after 48 hrs by luciferase based replicon assay
- Type: functional, organism-based, Hepacivirus hominis
- condition-notes: Huh-7, 48 h
Interpret pEC50 as the negative base-10 log of the concentration measured in mol/L.

Answered examples (5):
sample-smiles: COc1ccc2c(O[C@@H]3C[C@H]4C(=O)N[C@]5(C(=O)NS(=O)(=O)C6CC6)C[C@H]5/C=C\CCCCNC(=O)N4C3)cc(-c3ccccc3)nc2c1
pEC50: 7.85

sample-smiles: COc1ccc2c(O[C@@H]3C[C@H]4C(=O)N[C@]5(C(=O)NS(=O)(=O)C6CC6)C[C@H]5/C=C\CCCCCN(C)C(=O)N4C3)cc(-c3ccccc3)nc2c1
pEC50: 5.35

sample-smiles: COc1ccc2c(O[C@@H]3C[C@H]4C(=O)N[C@]5(C(=O)NS(=O)(=O)C6CC6)C[C@H]5/C=C\CCCCOC(=O)N4C3)cc(-c3ccccc3)nc2c1
pEC50: 7.21

sample-smiles: COc1ccc2c(O[C@@H]3C[C@H]4C(=O)N[C@]5(C(=O)NS(=O)(=O)C6CC6)C[C@H]5/C=C\CCCCNC(=O)N4C3)cc(-c3nc(C(C)C)cs3)nc2c1
pEC50: 8.30

sample-smiles: COc1ccc2c(O[C@@H]3C[C@H]4C(=O)N[C@]5(C(=O)NS(=O)(=O)C6CC6)C[C@H]5/C=C\CCCCCN(C)C(=O)N4C3)cc(-c3nc(C(C)C)cs3)nc2c1
pEC50: 6.15

Asked: I have this compound here, "COc1ccc2c(O[C@@H]3C[C@H]4C(=O)N[C@]5(C(=O)NS(=O)(=O)C6CC6)C[C@H]5/C=C\CCCCN(C)C(=O)N4C3)cc(-c3nc(C(C)C)cs3)nc2c1" , and I need its recorded pEC50.
Given back: 7.59

Asked: I have this compound here, "COc1ccc2c(O[C@@H]3C[C@H]4C(=O)N[C@]5(C(=O)NS(=O)(=O)C6(C)CC6)C[C@H]5/C=C\CCCCCNC(=O)N4C3)cc(-c3nc(C(C)C)cs3)nc2c1" , and I need its recorded pEC50.
Given back: 8.35

Asked: I have this compound here, "COc1ccc2c(O[C@@H]3C[C@H]4C(=O)N[C@]5(C(=O)O)C[C@H]5/C=C\CCCCCN(C)C(=O)N4C3)cc(-c3ccccc3)nc2c1" , and I need its recorded pEC50.
Given back: 5.35

Asked: I have this compound here, "COc1ccc2c(O[C@@H]3C[C@H]4C(=O)N[C@]5(C(=O)NS(=O)(=O)C6CC6)C[C@H]5/C=C\CCCCCNC(=O)N4C3)cc(-c3nc(C(C)C)cs3)nc2c1" , and I need its recorded pEC50.
Given back: 8.30

----------
Here, each record is paired with measured Vd data.
- experiment-description: Volume of distribution in Sprague-Dawley rat at 2 mg/kg, iv
- Assay type: ADME, organism-based
- Set-up: dose 2 mg/kg, route intravenous
- condition-notes: in vivo
Report the figure in L/kg without appending any unit label.

Asked: I have this compound here, "COc1ccc2c(O[C@@H]3C[C@H]4C(=O)N[C@]5(C(=O)NS(=O)(=O)C6CC6)C[C@H]5/C=C\CCCCNC(=O)N4C3)cc(-c3nc(C(C)C)cs3)nc2c1" , and I need its recorded Vd.
Given back: 1.6

Asked: I have this compound here, "COc1ccc2c(O[C@@H]3C[C@H]4C(=O)N[C@]5(C(=O)NS(=O)(=O)C6CC6)C[C@H]5/C=C\CCCCCNC(=O)N4C3)cc(-c3nc(C(C)C)cs3)nc2c1" , and I need its recorded Vd.
Given back: 1.46

Asked: I have this compound here, "COc1ccc2c(O[C@@H]3C[C@H]4C(=O)N[C@]5(C(=O)NS(=O)(=O)C6CC6)C[C@H]5/C=C\CCCCN(C)C(=O)N4C3)cc(-c3nc(C(C)C)cs3)nc2c1" , and I need its recorded Vd.
Given back: 4.5

----------
- experiment-description: AUC in Sprague-Dawley rat at 10 mg/kg, po
- Type: ADME, organism-based
- Set-up: dose 10 mg/kg, route oral
- condition-notes: plasma
Here, each record is paired with measured AUC data.
Report the figure in µM·h without appending any unit label.

Answered examples (2):
sample-smiles: COc1ccc2c(O[C@@H]3C[C@H]4C(=O)N[C@]5(C(=O)NS(=O)(=O)C6CC6)C[C@H]5/C=C\CCCCCNC(=O)N4C3)cc(-c3nc(C(C)C)cs3)nc2c1
measurement-unit: µM·h
numeric-readout: 6.97

sample-smiles: COc1ccc2c(O[C@@H]3C[C@H]4C(=O)N[C@]5(C(=O)NS(=O)(=O)C6CC6)C[C@H]5/C=C\CCCCN(C)C(=O)N4C3)cc(-c3nc(C(C)C)cs3)nc2c1
measurement-unit: µM·h
numeric-readout: 3.12

Asked: I have this molecule here, "COc1ccc2c(O[C@@H]3C[C@H]4C(=O)N[C@]5(C(=O)NS(=O)(=O)C6CC6)C[C@H]5/C=C\CCCCNC(=O)N4C3)cc(-c3nc(C(C)C)cs3)nc2c1" , and I need its recorded AUC.
Given back: 0.19
